pKi: −log10 of the molar value.
Entries with their measured pKi, system UniProt:P07858:

compound: CCCC(NC(=O)[C@@H]1C2CCCC2CN1C(=O)[C@@H](NC(=O)[C@@H](NC(=O)c1cnccn1)C1CCCCC1)C(C)(C)C)C(=O)C(=O)N[C@H](C)CC (some centres undefined)
pKi: 4.89
--
compound: CCCC(NC(=O)[C@@H]1[C@H]2CCC[C@H]2CN1C(=O)[C@@H](NC(=O)[C@@H](NC(=O)c1cnccn1)C1CCCCC1)C(C)(C)C)C(=O)C(=O)NC1CC1 (some centres undefined)
pKi: 5.52
--
compound: CCC[C@H](NC(=O)[C@@H]1C2CCCC2CN1C(=O)[C@@H](NC(=O)[C@@H](NC(=O)c1cnccn1)[C@@H](C)OC)C(C)(C)C)C(=O)C(=O)NC1CC1 (some centres undefined)
pKi: 5.14
--
compound: CC(C)(C)[C@H](NC(=O)[C@@H](NC(=O)c1cnccn1)C1CCCCC1)C(=O)N1CC2CCCC2[C@H]1C(=O)NC(CC(F)F)C(=O)C(=O)NC1CC1 (some centres undefined)
pKi: 4.40
